B1: library; a variant is named by its letters at X, in order (parent)
chain: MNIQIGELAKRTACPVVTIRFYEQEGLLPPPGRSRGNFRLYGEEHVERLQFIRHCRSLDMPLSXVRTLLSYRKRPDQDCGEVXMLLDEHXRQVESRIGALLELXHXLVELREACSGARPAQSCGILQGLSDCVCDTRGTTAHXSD

variants of: B1; assay: sfGFP reporter fluorescence (15 h) (µM FITC); higher = stronger transcriptional activation; conditions: library round: Round 3b; ligand: 1 µM Pb
parameter: sfGFP reporter fluorescence

Q. Would you mind telling me what sfGFP reporter fluorescence value was observed for KIIVHT ?
A. 0.673

Q. Name the recorded sfGFP reporter fluorescence for KNATEP .
A. 0.279

Q. sfGFP reporter fluorescence lookup needed for KIATHR , thanks.
A. 1.19

Q. Need sfGFP reporter fluorescence of DIAVHR , thanks.
A. 0.104

Q. Look up sfGFP reporter fluorescence: KIITAP
A. 0.308

Q. Given the entry KIAVET , report its measured sfGFP reporter fluorescence.
A. 1.21

Q. Give the measured sfGFP reporter fluorescence of DIATEP .
A. 0.0616

Q. Quick check: sfGFP reporter fluorescence of KNAVHR ?
A. 0.37

Q. Quick one: sfGFP reporter fluorescence for DFAVHT ?
A. 0.0539
